Data origin, for the record: paper PMC6753678

# System: 3D7-strain P. falciparum asexual parasites
# assay.summary: P. falciparum asexual growth inhibition assay (Pf GIA)
# Type: cell-based, Plasmodium falciparum
# condition.summary: dose response confirmation; read-out: Pf asexual growth inhibition assays IC50
reported.metric: pIC50
Lab note: report pIC50 as minus log10 of the concentration in molar units, number only.

Example results:
molecule	reported.metric	quantitative.readout
COc1ccc(C23Oc4cc(OC)cc(OC)c4C2(O)C2(CC3c3ccccc3)SCCCS2)cc1 (stereo not shown) [TCMDC-132098]	pIC50	6.15
Cl.Nc1nc(N)c2c(ccc3nn(S(=O)(=O)N4CCCC4)cc32)n1 [TCMDC-137854]	pIC50	6.84
CC(C)(CNC(=O)[C@H]1CCCCN1)c1nc(-c2ccc(Cl)c(O)c2)c(-c2ccncc2)[nH]1.Cl [TCMDC-141070]	pIC50	6.09
CN1CCN(c2ccc(Nc3nccc(-c4cnn5ncccc45)n3)cc2Cl)CC1 [TCMDC-138688]	pIC50	6.03
FC(F)(F)c1ccc(Nc2nnnc3ccccc23)cc1 [TCMDC-125603]	pIC50	8.05

The molecule identified as Cc1[nH]c(C)c(-c2ccc(OCc3ccccc3)cc2)c(=O)c1Br [TCMDC-138901] registered its pIC50 at 6.97

Just so you know, measured pIC50 for COc1ccc2ncc(C)c(CCN3CCC(NCc4ccc5c(n4)NC(=O)CS5)CC3)c2c1.Cl [TCMDC-134648] came out at 6.06

// pIC50 lookup, molecule = CC(C)(C)CNCC(C)(C)c1nc(-c2ccc(Cl)c(O)c2)c(-c2ccncc2)[nH]1.Cl [TCMDC-140549] , result: 6.09

pIC50 for Cc1[nH]c(C)c(-c2ccc(-c3ccc(OC(F)(F)F)cc3)cc2)c(=O)c1Cl [TCMDC-136060] is 7.11

Record CC(=O)c1ccc(NC(=O)Nc2ccc(N(C)c3ccnc(Nc4cccc(CS(C)(=O)=O)c4)n3)cc2)cc1 [TCMDC-138736] , field pIC50: 6.22

Looking up CCC1=C(C[C@H]2NCCc3cc(OC)c(OC)cc32)C[C@H]2c3cc(OC)c(OC)cc3CCN2C1.Cl [TCMDC-131825] , I see its pIC50 listed as 6.90

Recorded result, Nc1nc(N)c2c(ccc3c2ccn3CCCC(F)(F)F)n1 [TCMDC-138622] , pIC50: 6.98

pIC50 for COc1ccc(-c2cnc(N)c(-c3ccc(C(N)=O)cc3)c2)cc1OC [TCMDC-133349] is 6.18

Summary for this molecule, CCCCC1=CC2C(=O)C(C(=O)OC)=CN=C2C=C1OCc1ccccc1 (stereo not shown) [TCMDC-137492] : pIC50 is 6.85

# pIC50 (molecule: CSc1ccc(C=CC(=O)NC(=O)c2ccccc2O)cc1 [TCMDC-123758] ) is 6.75

# molecule COc1ccc2nccc([C@@H](O)CN3CCC(NCCOc4ccc(F)cc4Cl)CC3)c2c1.O=C(O)C(=O)O [TCMDC-140660] ; its pIC50 = 6.76

* * *

# Test system: HepG2 cells
# assay.summary: HepG2 cytotoxicity assay
# condition.summary: HepG2; this manuscript
# Experimental: Briefly, HepG2 cells were seeded onto compound-treated 384 well plates at a density of 2,500 cells per well in Minimal Essential Medium (MEM) plus 10% fetal bovine serum and 1% non-essential amino acids solution (NEAA). […] Cell viability was then measured in a fluorescent plate reader and percent inhibition calculated with respect to positive and negative controls.
Quick reference for HepG2 cytoxicity (Pb ODA, this manuscript) among some compounds
# output: bare number, implied unit µM

compound	target.of.assay	units.text	quantitative.readout
Cl.O=C1CSc2ccc(CNC3CCN(CCc4c(Cl)cnc5ccc(F)cc45)CC3)nc2N1	HepG2 cells	µM	38.90
Cc1ccc(S(=O)(=O)N(CCCNCc2cccc(O)c2)c2ccccc2)cc1	HepG2 cells	µM	34.67

HepG2 cytoxicity (Pb ODA, this manuscript) value, target or system HepG2 cells, for CCc1cc2c3c(N)nc(N)nc3ccc2n1C(C)CC (stereo not drawn) : 0.0017

The value of HepG2 cytoxicity (Pb ODA, this manuscript) recorded for CCN1CCN(CCCNc2c3ccccc3nc3ccccc23)CC1.Cl when tested on HepG2 cells reads 9.12

Let me check: Cc1cc(Nc2ncc(C#N)c(Nc3ccccc3C(N)=O)n2)ccc1N1CCN(C)CC1.Cl , system HepG2 cells, measured HepG2 cytoxicity (Pb ODA, this manuscript) is 3.98

Noted HepG2 cytoxicity (Pb ODA, this manuscript) for Nc1nc(N)c2c(ccc3c2ccn3Cc2cccc(F)c2)n1 , tested on HepG2 cells: 0.17

* * *

# Tested on: HepG2 cells
# assay.summary: HepG2 cytotoxicity assay
# condition.summary: read-out: HepG2 cytotoxicity assay IC50; dose response confirmation
reported.metric: pIC50
Convention used: pIC50 is expressed as -log10 of the molar concentration.

Reference set (3 entries):
compound	target.of.assay	reported.metric	quantitative.readout
COc1ccc2ncc(C#N)c(CCN3CCC(NCc4ccc5c(n4)NC(=O)CS5)CC3)c2n1.Cl [TCMDC-135188]	HepG2 cells	pIC50	4.26
COc1cccc(Cn2ccc3c4c(N)nc(N)nc4ccc32)c1 [TCMDC-137811]	HepG2 cells	pIC50	7.89
CN1CCN(c2ccc(Nc3nccc(-c4cnn5ncccc45)n3)cc2Cl)CC1 [TCMDC-138688]	HepG2 cells	pIC50	4.33

Consider now this further compound.
Just so you know, measured pIC50 for CCN1CCN(CCNc2c3ccccc3nc3ccccc23)CC1.Cl [TCMDC-137545] came out at 4.93

* * *

IC50 values, listed per item
# Test system: P. berghei ookinete development
# condition.summary: read-out: Pb Ookinete development assay IC50; dose response confirmation
I only need the number, in µM, no unit after it.

Field: example entries. Status: answers known.
1) CCc1c(CCNCCCCCCNCCc2ccc([N+](=O)[O-])cc2)ccc(OC)c1OC.Cl 6.61
2) CCOC(=O)NC1=NC(=N)N(OCCCOc2cc(Cl)c(Cl)cc2Cl)C(C)(C)N1 5.08
3) NS(=O)(=O)c1cncc(-c2ccc3nccc(-c4cn[nH]c4)c3n2)c1 2.16
4) Cc1[nH]c(C)c(-c2ccc(OCc3cccc(C(F)(F)F)c3)nc2)c(=O)c1Br 0.106
5) C/C=C/COc1ccc(-c2c(C)[nH]c(C)c(Cl)c2=O)cc1 0.469
6) Cc1[nH]c(C)c(-c2ccc(-c3ccc(C(F)F)cc3)nc2)c(=O)c1Cl 7.79
7) COc1ccc2nc3cc(Cl)ccc3c(N)c2c1.Cl 6.32
8) Cl.Oc1cc(-c2nc(-c3ccccc3)[nH]c2-c2ccncc2)ccc1Cl 1.76
9) COc1cccc(Cn2ccc3c4c(N)nc(N)nc4ccc32)c1 1.56
10) COc1cc(NC2=NS(=O)(=O)c3cc(Cl)ccc3N2C)cc(OC)c1OC.O=C(O)C(F)(F)F 1.35

Kindly review the next molecule as well.
Lab book: IC50 of Cc1[nH]c(C)c(-c2ccc(-c3ccc(OC(F)(F)F)cc3)cc2)c(=O)c1Br noted as 0.026

* * *

# Test system: P. berghei ookinete development
# condition.summary: read-out: Pb ODA IC50; this manuscript
reported.metric: IC50 (nM)
Give the number; nM is assumed, so skip it.

molecule	IC50 / nM
CC[C@@]1(O)C(=O)OCc2c1cc1n(c2=O)Cc2c-1nc1cc3c(cc1c2CN1CCOCC1)OCO3.O=C(O)C(F)(F)F	1250
CCCC(C)n1ccc2c3c(N)nc(N)nc3ccc21 (stereo not drawn)	4290
Cc1cc(C(=O)NC2CCN(CC3(c4ccccc4)CCCCC3)CC2)on1	610
CCCOc1cc(OCCC)cc(-c2cc(=O)c3ccccc3[nH]2)c1	550

Form: item Cc1[nH]c(C)c(-c2ccc(-c3ccc(OCC(F)(F)F)cc3)nc2)c(=O)c1Cl ; test system P. berghei ookinete development; IC50: 1240

Summary line: CCc1cc2c3c(N)nc(N)nc3ccc2n1C(C)CC (stereo not drawn) , P. berghei ookinete development, reported IC50 = 690

Reading of IC50 for CCC(CC)n1c(C)cc2c3c(N)nc(N)nc3ccc21 with P. berghei ookinete development: 850

Entry COc1ccc(Cl)cc1NC(=O)CN(C)C(=O)c1cnn(-c2ccccc2)n1 , tested on P. berghei ookinete development, has a reported IC50 of 5110

Sample Cc1cccc(Nc2nc(NCCCCN)nc3cc[nH]c(=O)c23)c1.O=C(O)C(F)(F)F , system: P. berghei ookinete development. Its IC50 is 3060

The molecule COc1cc(OC)nc(C(Sc2ccc(NC(=O)c3cccs3)cc2)c2ccccc2)n1 (stereo not drawn) on P. berghei ookinete development: IC50 was 970

Tested on P. berghei ookinete development, the item Cc1[nH]c(C)c(-c2ccc(-c3ccc(Cl)cc3)nc2)c(=O)c1Cl showed IC50 equal to 960

Entry O=C(c1ccco1)N1CCN(c2ccc([N+](=O)[O-])c(NC3CC3)c2)CC1 : IC50 on P. berghei ookinete development = 1160
